- assayed_system: CyclinE1/CDK2 (Homo sapiens, UniProt P24864)
- Construct: purchased Eurofins, discovery 14-475
- test_details: Fluorescence Polarization (FP) competitive binding assay, Cyclin E1/Cdk2;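 also: readings taken after two-hour equilibration at room temperature in HEPES buffer with NaCl, DTT, NP-40 and BSA, IC50 fitted from eight-concentration serial dilution series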
- run_parameters: 10 nM Cyclin E1/Cdk2, 2 nM FAM probe; average of 2-3 independent experiments; read-out: Cyclin E FP IC50
*1 amine or outer side, *2 acyl side, *3 side chain or, on linkers, in order; H or OH if unused. Where a SMILES comes first, the peptide text is derived from it. Bridges are numbered along the chain shown (N, C = ends). [ ]: non-standard residue; d: D form. The star is where a group is joined. X92 = CN1CCN(C(=O)c2ccc(-c3ccc(Cl)cc3C[C@@H](C(=O)[*:2])N(C)[*:1])cc2)CC1; X62 = CN1CCC[C@H](c2ccc(-c3ccc(Cl)cc3C[C@@H](C(=O)[*:2])N(C)[*:1])cc2)C1; X151 = CN([C@@H](Cc1cc(Cl)ccc1-c1cnn(C2CCC2)c1)C(=O)[*:2])[*:1]; NMehhhLys(Me) = CN([C@@H](CCCCCCCN(C)[*:3])C(=O)[*:2])[*:1]; NMe3Pal(2-OiPr,5-Cl) = CN[C@@H](Cc1cc(Cl)cnc1OC(C)C)C(=O)O; X213 = CN([C@@H](Cc1cc(Cl)cc2c1cnn2C)C(=O)[*:2])[*:1]; Cyclobutanecarbonyl(1-CF3) = O=C(C1(C(F)(F)F)CCC1)*; cBuCO(3,3-F2-1-CF3) = O=C(C1(C(F)(F)F)CC(F)(F)C1)*; Pro(trans-4-F) = O=C(O)[C@@H]1C[C@@H](F)CN1; Gly(cPr) = N[C@H](C(=O)O)C1CC1
observed_property: log10 of IC50 (log10 of the value in nM)

compound: CC(C)C[C@@H]1NC(=O)[C@@H](N(C)C(=O)[C@@H](NC(=O)[C@@H]2C[C@@H](F)CN2C(=O)C2(C(F)(F)F)CC(F)(F)C2)C2CC2)CCCCCCCN(C)C(=O)[C@H](Cc2cc(Cl)cc3c2cnn3C)N(C)C1=O [Example 424] ({cBuCO(3,3-F2-1-CF3)}-[Pro(trans-4-F)][Gly(cPr)][NMehhhLys(Me)]L[X213]; lactam 3-C)
log10 of IC50: 3.58

compound: CC(C)C[C@@H]1NC(=O)[C@@H](N(C)C(=O)[C@@H](NC(=O)[C@@H]2C[C@@H](F)CN2C(=O)C2(C(F)(F)F)CCC2)C2CC2)CCCCCCCN(C)C(=O)[C@H](Cc2cc(Cl)cnc2OC(C)C)N(C)C1=O [Example 119] ({Cyclobutanecarbonyl(1-CF3)}-[Pro(trans-4-F)][Gly(cPr)][NMehhhLys(Me)]L[NMe3Pal(2-OiPr,5-Cl)]; lactam 3-C)
log10 of IC50: 2.00

compound: CC(C)C[C@@H]1NC(=O)[C@@H](N(C)C(=O)[C@@H](NC(=O)[C@@H]2C[C@@H](F)CN2C(=O)C2(C(F)(F)F)CC(F)(F)C2)C2CC2)CCCCCCCN(C)C(=O)[C@H](Cc2cc(Cl)ccc2-c2cnn(C3CCC3)c2)N(C)C1=O [Example 112] ({cBuCO(3,3-F2-1-CF3)}-[Pro(trans-4-F)][Gly(cPr)][NMehhhLys(Me)]L[X151]; lactam 3-C)
log10 of IC50: 2.53

compound: CC(C)C[C@@H]1NC(=O)[C@@H](N(C)C(=O)[C@@H](NC(=O)[C@@H]2C[C@@H](F)CN2C(=O)C2(C(F)(F)F)CC(F)(F)C2)C2CC2)CCCCCCCN(C)C(=O)[C@H](Cc2cc(Cl)ccc2-c2ccc([C@H]3CCCN(C)C3)cc2)N(C)C1=O [Example 412] ({cBuCO(3,3-F2-1-CF3)}-[Pro(trans-4-F)][Gly(cPr)][NMehhhLys(Me)]L[X62]; lactam 3-C)
log10 of IC50: 3.14

compound: CC(C)C[C@@H]1NC(=O)[C@@H](N(C)C(=O)[C@@H](NC(=O)[C@@H]2C[C@@H](F)CN2C(=O)C2(C(F)(F)F)CC(F)(F)C2)C2CC2)CCCCCCCN(C)C(=O)[C@H](Cc2cc(Cl)ccc2-c2ccc(C(=O)N3CCN(C)CC3)cc2)N(C)C1=O [Example 390] ({cBuCO(3,3-F2-1-CF3)}-[Pro(trans-4-F)][Gly(cPr)][NMehhhLys(Me)]L[X92]; lactam 3-C)
log10 of IC50: 2.94

compound: CC(C)C[C@@H]1NC(=O)[C@@H](N(C)C(=O)[C@@H](NC(=O)[C@@H]2C[C@@H](F)CN2C(=O)C2(C(F)(F)F)CC(F)(F)C2)C2CC2)CC=CCCCCN(C)C(=O)[C@H](Cc2cc(F)ccc2-c2cnn(C3CC3)c2)N(C)C1=O
log10 of IC50: 2.40
